TARGET_OR_SYSTEM: PKR K410E (Homo sapiens, UniProt P30613, K410E)
Sequence (P30613 whole entry K410E): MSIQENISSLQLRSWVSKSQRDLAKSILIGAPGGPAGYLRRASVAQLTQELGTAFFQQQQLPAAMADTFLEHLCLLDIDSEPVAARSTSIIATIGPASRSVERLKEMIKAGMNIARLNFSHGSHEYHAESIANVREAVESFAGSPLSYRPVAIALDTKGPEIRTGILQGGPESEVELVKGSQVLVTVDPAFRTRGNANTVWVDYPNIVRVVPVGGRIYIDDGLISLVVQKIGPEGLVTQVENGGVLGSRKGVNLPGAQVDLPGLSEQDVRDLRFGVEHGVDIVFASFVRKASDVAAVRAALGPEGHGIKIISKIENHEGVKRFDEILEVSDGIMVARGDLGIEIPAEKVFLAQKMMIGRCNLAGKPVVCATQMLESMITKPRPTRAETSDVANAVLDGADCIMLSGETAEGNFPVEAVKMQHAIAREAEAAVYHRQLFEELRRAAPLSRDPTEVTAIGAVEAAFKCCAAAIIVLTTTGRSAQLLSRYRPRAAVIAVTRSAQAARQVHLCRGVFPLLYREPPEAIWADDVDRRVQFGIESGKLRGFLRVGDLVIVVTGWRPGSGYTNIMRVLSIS
EXPERIMENT_DESCRIPTION: PKR mutant assay (K410E), AC50, LDH/NADH-coupled, absorbance at 340 nm
PARTICULARS: Table 4; AC50, enzyme assay
Experimental: Example 11. PKR Mutant Assay PKR or PKR mutant enzyme solution was diluted into a reaction mix, which contains 1× buffer (100 mM KCl, 50 mM Tris pH 7.5, 5 mM MgCl2) as well as PEP (conc depends on enzyme), 180 μM NADH, 0.5 units LDH, 1 mM DTT, 0.03% BSA; final assay concentrations after 1.11 fold dilution are indicated. […] 20 uL ADP was added to start reaction at room temperature and reaction progress was measured as changes in absorbance at 340 nm wavelength at room temperature. […]
Could you please report measured EC50 for the items listed next?

Report EC50 for O=c1c2c(cnn1Cc1ccccc1)c1sc(Cc3cc[nH]n3)nc1n2C1CC1 [Compound 408] please. > 800 nM

Next compound: Cn1c2nc(-n3cnc(CS(=O)(=O)c4ccccc4)c3)sc2c2cnn(Cc3cccc4[nH]ncc34)c(=O)c21 [Compound 187] > 800 nM

Next compound: Cn1c2nc(Cc3cc[nH]n3)sc2c2cnn(Cc3cccc4[nH]ccc34)c(=O)c21 [Compound 246] < 300 nM

Next compound: Cn1c2nc(Cc3n[nH]cc3F)sc2c2cnn(Cc3ccccc3)c(=O)c21 [Compound 382] < 300 nM

* * *

TARGET_OR_SYSTEM: PKR R510Q (Homo sapiens, UniProt P30613, R510Q)
Sequence (P30613 whole entry R510Q): as the sequence (P30613 whole entry K410E) above, with E410K, R510Q counted along it
EXPERIMENT_DESCRIPTION: PKR mutant assay (R510Q), AC50, LDH/NADH-coupled, absorbance at 340 nm
Format: biochemical
PARTICULARS: Table 2; enzyme assay; read-out: PK R510Q AC50
READOUT_LABEL: AC50

Report AC50 for Cn1c2nc([S+](C)[O-])sc2c2cnn(Cc3cccc4[nH]ncc34)c(=O)c21 (stereo not shown) please. 301 to 800 nM

Next compound: Cn1c2nc(Cc3cc[nH]n3)sc2c2cnn(Cc3ccc(C#N)cc3)c(=O)c21 < 300 nM

Next compound: Cc1nc2c(s1)c1cnn(Cc3cccc4cn[nH]c34)c(=O)c1n2C 301 to 800 nM

Next compound: Cc1nc2c(s1)c1cnn(Cc3ccc4[nH]c(=O)[nH]c4c3)c(=O)c1n2C > 800 nM

* * *

TARGET_OR_SYSTEM: wild type PKR (Homo sapiens)
Sequence (P30613 whole entry): as the sequence (P30613 whole entry K410E) above, with E410K counted along it
EXPERIMENT_DESCRIPTION: PKR (wild type) enzyme AC50 assay, LDH/NADH-coupled, absorbance at 340 nm
Format: biochemical
PARTICULARS: Table 2; enzyme assay; read-out: PKR WT AC50
READOUT_LABEL: AC50

Report AC50 for Cn1c2nc([S+](C)[O-])sc2c2cnn(Cc3ccc4c(c3)OCCO4)c(=O)c21 (stereo not shown) please. < 300 nM

Next molecule: Cn1c2nc(Cc3cc[nH]n3)sc2c2cnn(Cc3ccc4c(c3)OCCO4)c(=O)c21 < 300 nM

Next molecule: Cn1c2nc(Cc3ccc(O)cc3)sc2c2cnn(Cc3cccc4[nH]ncc34)c(=O)c21 < 300 nM

Next molecule: Cn1c2nc(C(=O)NO)sc2c2cnn(Cc3cccc4[nH]ncc34)c(=O)c21 301 to 800 nM

Next molecule: Cn1c2nc(CO)sc2c2cnn(Cc3cccc4[nH]ncc34)c(=O)c21 < 300 nM

Next molecule: COc1cccc(Cn2ncc3c4sc(Cc5ccc(C(F)(F)F)cc5)nc4n(C)c3c2=O)c1 < 300 nM

Next molecule: Cn1c2nc(Cc3cc[nH]n3)sc2c2cnn(Cc3cccc(C#N)c3)c(=O)c21 < 300 nM

Next molecule: Cc1nc2c(s1)c1cnn(Cc3ccc(O)cc3)c(=O)c1n2C < 300 nM

Next molecule: COc1cccc(Cn2ncc3c4sc(C=O)nc4n(C)c3c2=O)c1 < 300 nM

Next molecule: Cc1nc2c(s1)c1cnn(Cc3ccc4[nH]c(=O)[nH]c4c3)c(=O)c1n2C > 800 nM

Next molecule: Cc1nc2c(s1)c1cnn(Cc3cccc4cn[nH]c34)c(=O)c1n2C > 800 nM

Next molecule: Cc1nc2c(s1)c1cnn(Cc3ccc4cc[nH]c4c3)c(=O)c1n2C < 300 nM

Next molecule: COc1cccc(Cn2ncc3c4sc(I)nc4n(C)c3c2=O)c1 301 to 800 nM

Next molecule: Cn1c2nc(C(N)c3cc[nH]n3)sc2c2cnn(Cc3cccc4[nH]ncc34)c(=O)c21 (stereo not shown) < 300 nM

Next molecule: Cn1c2nc(Cc3cccnc3)sc2c2cnn(Cc3cccc4[nH]ncc34)c(=O)c21 < 300 nM

Next molecule: CSc1nc2c(s1)c1cnn(Cc3csc(-n4c(C)ccc4C)n3)c(=O)c1n2C > 800 nM

Next molecule: CC(=O)c1cccc(Cn2ncc3c4sc(C)nc4n(C)c3c2=O)c1 301 to 800 nM

Next molecule: Cn1c2nc(Cc3cncnc3)sc2c2cnn(Cc3cccc4[nH]ncc34)c(=O)c21 > 800 nM

Next molecule: CSc1nc2c(s1)c1cnn(Cc3cccc(C(C)(C)O)c3)c(=O)c1n2C < 300 nM

Next molecule: Cn1c2nc(NC(=O)Cc3cc[nH]n3)sc2c2cnn(Cc3cccc4[nH]ncc34)c(=O)c21 > 800 nM

Next molecule: CCOC(=O)Cn1ncc2c3sc(C)nc3n(C)c2c1=O > 800 nM

Next molecule: Cc1nc2c(s1)c1cnn(Cc3ccccc3O)c(=O)c1n2C 301 to 800 nM

Next molecule: COc1cccc(Cn2ncc3c4sc(C(O)c5ccccc5)nc4n(C)c3c2=O)c1 (stereo not shown) < 300 nM

Next molecule: Cn1c2nc(CC(N)=O)sc2c2cnn(Cc3cccc4[nH]ncc34)c(=O)c21 301 to 800 nM

Next molecule: COc1cccc(Cn2ncc3c4sc(Cl)nc4n(C)c3c2=O)c1 < 300 nM

Next molecule: COc1cccc(Cn2ncc3c4sc(Cc5ccc(F)cc5)nc4n(C)c3c2=O)c1 < 300 nM

Next molecule: Cn1c2nc([S+](C)[O-])sc2c2cnn(Cc3ccc(C#N)cc3)c(=O)c21 (stereo not shown) > 800 nM

Next molecule: Cn1c2nc(CNS(C)(=O)=O)sc2c2cnn(Cc3cccc4[nH]ncc34)c(=O)c21 < 300 nM

Next molecule: Cn1c2nc(S(C)(=O)=O)sc2c2cnn(Cc3cccc4[nH]ncc34)c(=O)c21 < 300 nM

Next molecule: COc1cccc(Cn2ncc3c4sc([S+]([O-])c5ccccc5)nc4n(C)c3c2=O)c1 (stereo not shown) 301 to 800 nM

Next molecule: COc1cccc(Cn2ncc3c4sc(S(=O)(=O)c5ccccc5)nc4n(C)c3c2=O)c1 > 800 nM

Next molecule: Cn1c2nc(Cc3cc[nH]n3)sc2c2cnn(Cc3ccc(C(N)=O)cc3)c(=O)c21 > 800 nM

Next molecule: COc1cccc(Cc2nc3c(s2)c2cnn(Cc4cccc5[nH]ncc45)c(=O)c2n3C)n1 < 300 nM

Next molecule: CCOC(=O)c1cccc(Cn2ncc3c4sc(C)nc4n(C)c3c2=O)c1 > 800 nM

* * *

Could you please report measured EC50 for the items listed next?
TARGET_OR_SYSTEM: PKR R510Q (Homo sapiens, UniProt P30613, R510Q)
EXPERIMENT_DESCRIPTION: PKR mutant assay (R510Q), AC50, LDH/NADH-coupled, absorbance at 340 nm
PARTICULARS: Table 4; AC50, enzyme assay; read-out: PK R510Q

Report EC50 for Cn1c2nc(Cc3ncsc3C(N)=O)sc2c2cnn(Cc3cccc4[nH]ncc34)c(=O)c21 please. < 300 nM

Next compound: Cn1c2nc(Cc3c[nH]nn3)sc2c2cnn(Cc3cccc(OC(F)(F)F)c3)c(=O)c21 < 300 nM

Next compound: Cn1c2nc(Cc3cccc(N)n3)sc2c2cnn(Cc3cccc4[nH]ncc34)c(=O)c21 < 300 nM

Next compound: Cn1c2nc(Cc3cnc(N)s3)sc2c2cnn(Cc3cccc4[nH]ncc34)c(=O)c21 301 to 800 nM

Next compound: Cn1c2nc(Cc3cc[nH]n3)sc2c2cnn(Cc3ccccc3)c(=O)c21 < 300 nM

Next compound: Cn1c2nc(Cc3cc[nH]n3)sc2c2cnn(Cc3cccc4[nH]c(=O)[nH]c34)c(=O)c21 < 300 nM

Next compound: O=c1c2c(cnn1Cc1ccccc1)c1sc(Cc3ccccn3)nc1n2-c1nccs1 > 800 nM

Next compound: Cn1c2nc(Cc3cc[nH]n3)sc2c2cnn(Cc3cccc4c3NS(=O)(=O)N4)c(=O)c21 > 800 nM

Next compound: Cn1c2nc(Cc3cc[nH]n3)sc2c2cnn(Cc3ccc4cc(Cl)[nH]c4n3)c(=O)c21 < 300 nM

Next compound: Cn1c2nc(Cc3cc[nH]n3)sc2c2cnn(Cc3cn4cccnc4n3)c(=O)c21 301 to 800 nM

Next compound: Cn1c2nc(Cc3cc[nH]n3)sc2c2cnn(Cc3ccc4cc(F)[nH]c4n3)c(=O)c21 < 300 nM

Next compound: Cn1cc(Cc2nc3c(s2)c2cnn(Cc4cccc(C(N)=O)c4)c(=O)c2n3C)cn1 301 to 800 nM

Next compound: Cn1c2nc([C@@H](O)c3cc[nH]n3)sc2c2cnn(Cc3cccc4[nH]ncc34)c(=O)c21 < 300 nM

Next compound: Cn1c2nc(Cc3cccc4[nH]c(=O)[nH]c34)sc2c2cnn(Cc3cccc4[nH]ncc34)c(=O)c21 < 300 nM

Next compound: Cn1c2nc(Cn3ccnc3)sc2c2cnn(Cc3cccc4[nH]ncc34)c(=O)c21 > 800 nM

Next compound: Cn1c2nc(Cc3cc[nH]n3)sc2c2cnn(Cc3ccc4c(c3)OCO4)c(=O)c21 < 300 nM

Attribution: patent US11957680B2
